Hey, just so you know, these numbers are from patent US11230526B1.

- test system: Human GPR120 short form (Homo sapiens)
- Construct: expressed in transfected cells
- Sequence (Q5NUL3 1-361): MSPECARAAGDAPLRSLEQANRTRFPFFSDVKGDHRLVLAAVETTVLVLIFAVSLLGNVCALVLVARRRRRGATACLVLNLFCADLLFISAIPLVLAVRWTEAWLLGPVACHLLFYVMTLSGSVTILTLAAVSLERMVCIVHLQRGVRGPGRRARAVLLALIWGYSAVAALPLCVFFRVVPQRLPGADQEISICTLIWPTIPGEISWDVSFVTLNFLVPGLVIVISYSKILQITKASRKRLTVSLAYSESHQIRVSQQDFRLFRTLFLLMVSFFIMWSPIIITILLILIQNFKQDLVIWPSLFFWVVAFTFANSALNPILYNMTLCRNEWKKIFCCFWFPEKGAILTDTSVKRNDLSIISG
- assay explanation: Human GPR120 calcium flux assay, Procedure Calcium A (2500 cells/well)
- Assay type: cell-based
Each item that follows carries a reported EC50.

{"molecule": "COc1cc(F)cc(C2=C(COc3ccc(CCC(=O)O)c(C)c3C)CCC2)c1 [Compound 65]", "test system": "Human GPR120 short form (Homo sapiens)", "qualifier sign": "=", "EC50 / nM": 2490}
{"molecule": "O=C(O)CCc1cc(F)c(OCC2=C(c3ccc(Cl)cc3)CCCC2)c(F)c1 [Compound 510]", "test system": "Human GPR120 short form (Homo sapiens)", "qualifier sign": "=", "EC50 / nM": 561}
{"molecule": "CCc1ccc(C2=C(COc3c(F)cc(CCC(=O)O)cc3F)CCC2)cc1 [Compound 16]", "test system": "Human GPR120 short form (Homo sapiens)", "qualifier sign": "=", "EC50 / nM": 198}
{"molecule": "Cc1ccc(C2=C(COc3ccc(CCC(=O)O)c(C)c3C)CCCC2)cc1 [Compound 462]", "test system": "Human GPR120 short form (Homo sapiens)", "qualifier sign": "=", "EC50 / nM": 462}
{"molecule": "Cc1c(CCC(=O)O)ccc(OCC2=C(c3ccc(OC(F)(F)F)cc3)CCCC2)c1C [Compound 466]", "test system": "Human GPR120 short form (Homo sapiens)", "qualifier sign": "=", "EC50 / nM": 4440}
{"molecule": "Cc1c(CCC(=O)O)ccc(OCC2=C(c3ccc(F)cc3)CCCC2)c1C [Compound 480]", "test system": "Human GPR120 short form (Homo sapiens)", "qualifier sign": "=", "EC50 / nM": 234}
{"molecule": "Cc1c(CCC(=O)O)ccc(OCC2=C(c3ccccn3)CCC2)c1C [Compound 147]", "test system": "Human GPR120 short form (Homo sapiens)", "qualifier sign": "=", "EC50 / nM": 1010}
{"molecule": "Cc1c(CCC(=O)O)ccc(OCC2=C(c3ccc([S+](C)[O-])cc3)CCC2)c1C (stereo not drawn) [Compound 120]", "test system": "Human GPR120 short form (Homo sapiens)", "qualifier sign": ">", "EC50 / nM": 5000}
{"molecule": "Cc1ccc(C2=C(COc3ccc(CCC(=O)O)c(C)c3C)CCC2)c(C)c1 [Compound 82]", "test system": "Human GPR120 short form (Homo sapiens)", "qualifier sign": "=", "EC50 / nM": 372}
{"molecule": "Cc1c(CCC(=O)O)ccc(OCC2=C(c3cccc(Cl)c3)CCC2)c1C [Compound 58]", "test system": "Human GPR120 short form (Homo sapiens)", "qualifier sign": "=", "EC50 / nM": 546}
{"molecule": "Cc1c(CCC(=O)O)ccc(OCC2=C(c3cccs3)CCCC2)c1C [Compound 482]", "test system": "Human GPR120 short form (Homo sapiens)", "qualifier sign": "=", "EC50 / nM": 406}
{"molecule": "Cc1c(CCC(=O)O)ccc(OCC2=C(c3ccc(F)cc3)CCC2)c1C [Compound 4]", "test system": "Human GPR120 short form (Homo sapiens)", "qualifier sign": "=", "EC50 / nM": 294}
